Listed here are binders together with their documented ELISA score.
molecular target: T1, human neonatal Fc receptor (hFcRn) (human, UniProt P55899 24-290; P61769 21-119); assay: phage ELISA pH 7.4;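 further: higher score means stronger binding and above about 3 to 5 exceeds background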
T1 construct: Biotinylated in the ELISA, Octet and yeast assays; also called human FcRn; huFcRn
T1 sequence (P55899 24-290 limits assumed, chain 1 of 2): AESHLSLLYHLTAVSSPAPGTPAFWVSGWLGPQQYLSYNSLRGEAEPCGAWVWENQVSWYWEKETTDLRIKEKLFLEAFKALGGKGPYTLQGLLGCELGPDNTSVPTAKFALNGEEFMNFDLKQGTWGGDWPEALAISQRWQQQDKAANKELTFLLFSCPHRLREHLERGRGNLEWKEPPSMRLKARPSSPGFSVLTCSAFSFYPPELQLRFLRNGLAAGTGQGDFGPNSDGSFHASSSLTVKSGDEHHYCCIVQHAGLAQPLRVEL
T1 sequence (P61769 21-119 limits assumed, chain 2 of 2): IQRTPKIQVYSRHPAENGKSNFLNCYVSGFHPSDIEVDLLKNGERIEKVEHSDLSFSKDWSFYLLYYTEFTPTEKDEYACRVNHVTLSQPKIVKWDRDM

binder | ELISA score
L5 isolate with insertion SEQ ID NO: 452 (other) EPKSCDKTHTCPPCPAPELLGGPSVFLFPPKPKDTLMISRTPEVTCVVVDVSHEDPEVKFNWYVDGVEVHNAKTKPREEQYNSTYRVVSVLTVLHQDWLNGKEYKCKVSNKALPAPIEKTISKAKGQPREPQVYTLPPSRDELTKNQVSLTCLVKGFYPSDIAVEWESNGGCWMWAEECGGGQPENNYKTTPPVLDSDGSFFLYSKLTVDKSRWQQGNVFSCSVMHEALHNHYTQKSLSLSPGK | 1
L5 isolate with insertion SEQ ID NO: 418 (other) EPKSCDKTHTCPPCPAPELLGGPSVFLFPPKPKDTLMISRTPEVTCVVVDVSHEDPEVKFNWYVDGVEVHNAKTKPREEQYNSTYRVVSVLTVLHQDWLNGKEYKCKVSNKALPAPIEKTISKAKGQPREPQVYTLPPSRDELTKNQVSLTCLVKGFYPSDIAVEWESNGGCITEFSHCGGGQPENNYKTTPPVLDSDGSFFLYSKLTVDKSRWQQGNVFSCSVMHEALHNHYTQKSLSLSPGK | 0.4
L5 isolate with insertion SEQ ID NO: 417 (other) EPKSCDKTHTCPPCPAPELLGGPSVFLFPPKPKDTLMISRTPEVTCVVVDVSHEDPEVKFNWYVDGVEVHNAKTKPREEQYNSTYRVVSVLTVLHQDWLNGKEYKCKVSNKALPAPIEKTISKAKGQPREPQVYTLPPSRDELTKNQVSLTCLVKGFYPSDIAVEWESNGGCTEQVMWCGGGQPENNYKTTPPVLDSDGSFFLYSKLTVDKSRWQQGNVFSCSVMHEALHNHYTQKSLSLSPGK | 0.3
